target entity: human ERK-2 (Mitogen Activated Kinase 1) (Homo sapiens (Human), UniProt P28482)
Sequence (P28482 8-360): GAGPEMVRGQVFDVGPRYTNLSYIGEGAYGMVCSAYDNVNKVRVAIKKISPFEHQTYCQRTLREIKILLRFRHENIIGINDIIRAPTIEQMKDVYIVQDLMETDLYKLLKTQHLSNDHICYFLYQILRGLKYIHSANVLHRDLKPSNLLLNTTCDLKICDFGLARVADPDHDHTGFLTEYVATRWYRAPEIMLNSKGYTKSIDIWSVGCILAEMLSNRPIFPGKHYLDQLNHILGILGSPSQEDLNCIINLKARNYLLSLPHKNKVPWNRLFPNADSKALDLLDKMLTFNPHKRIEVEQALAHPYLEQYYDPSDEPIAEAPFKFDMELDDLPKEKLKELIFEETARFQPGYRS
measurement notes: ERK-2 Enzymatic Assay
test context: human ERK-2 enzyme 5 nM, 25 μM ATP, S/T17 peptide substrate; isomer = configuration of CR2R3
pIC50: −log10 of the molar value.
quantity kind: pIC50

Cn1nccc1Nc1nccc(-c2cc3n4c(nnc4c2)[C@H](Oc2ccccc2)CCO3)n1 [(R) I-90] : 9.03

(a) Cn1nccc1Nc1nccc(-c2cc3n4c(nnc4c2)[C@@H](Cn2cc(Cl)cn2)CCO3)n1 [(R) I-42]
(b) Cn1nccc1Nc1nccc(-c2cc3n4c(nnc4c2)[C@H](Cc2ccccc2)CN3)n1 [(R) I-2]
(c) CN1C(=O)C[C@@H](Cc2ccc(Cl)cn2)c2nnc3cc(-c4ccnc(Nc5ccnn5C)c4)cc1n23 [Compound I-94]
(d) COc1ncccc1C[C@H]1CN(C)c2cc(-c3ccnc(Nc4ccnn4C)n3)cc3nnc1n23 [(S) I-43]
(e) Cn1nccc1Nc1cc(-c2cc3n4c(nnc4c2)C(Cc2ccccc2Cl)CCO3)ccn1 (single isomer, unassigned) [(R) I-60]
Arrange these compounds by their pIC50, starting with the largest number. The response must list the labels following the requested ordering.
a, b, d, e, c
(a: 10.10, b: 9.42, d: 8.88, e: 8.59, c: 6.22)

(A) Cn1nccc1Nc1cc(-c2cc3n4c(nnc4c2)[C@H](Cn2cc(Cl)cn2)CCO3)ccn1 [(S) I-47]
(B) Cn1nccc1Nc1cc(-c2cc3n4c(nnc4c2)[C@H](Cc2ccc(F)c(F)c2)CO3)ccn1 [(S) I-54]
Which of the two gives a bigger number for pIC50: A or B ? Could you answer with the label of the item you picked?
A

(a) Cn1nccc1Nc1nccc(-c2cc3n4c(nnc4c2)[C@H](Cc2ccc(Cl)c(F)c2)CN3)n1 [(R) I-14]
(b) CC(C)C[C@H]1CN(C)c2cc(-c3ccnc(Nc4ccnn4C)c3)cc3nnc1n23 [(S) I-20]
// returns a or b , whichever has the lower pIC50 State the label of the item chosen.
b

====

target entity: human ERK-2 (Mitogen Activated Kinase 1) (Homo sapiens (Human), UniProt P28482)
measurement notes: ERK-2 Enzymatic Assay
test context: human ERK-2 enzyme 5 nM, 25 μM ATP, S/T17 peptide substrate; isomer = configuration of CR2R3
quantity kind: IC50 (nM)

Cn1nccc1Nc1nccc(-c2cc3n4c(nnc4c2)C(C2CC2)CO3)n1 (centres unmarked) : 0.751
CN1C(=O)N[C@H](Cc2cccc(F)c2)c2nnc3cc(-c4ccnc(Nc5ccnn5C)n4)cc1n23 : 0.215

(P) Cn1nccc1Nc1nccc(-c2cc3n4c(nnc4c2)[C@@H](Oc2cncc(F)c2)CCO3)n1 [(S) I-91]
(Q) CC(C)C[C@@H]1COc2cc(-c3ccnc(Nc4ccnn4C)n3)cc3nnc1n23 [(S) I-45]
Higher IC50: P or Q ? API: response body contains the label of the selected item.
Q
(Q: 20.9 nM, P: 0.035 nM)

====

target entity: human ERK-2 (Mitogen Activated Kinase 1) (Homo sapiens (Human), UniProt P28482)
measurement notes: ERK-2 Enzymatic Assay
test context: human ERK-2 enzyme 5 nM, 25 μM ATP, S/T17 peptide substrate; isomer = configuration of CR2R3
pIC50: −log10 of the molar value.
quantity kind: pIC50

Some entries whose results are on file:
Cn1nccc1Nc1nccc(-c2cc3n4c(nnc4c2)[C@H](c2ccccc2)CN3)n1 [(R) I-1] : 6.75
Cn1nccc1Nc1nccc(-c2cc3n4c(nnc4c2)[C@H](Oc2cncc(F)c2)CCO3)n1 [(R) I-91] : 7.59
COc1ccc(C[C@@H]2CNc3cc(-c4ccnc(Nc5ccnn5C)n4)cc4nnc2n34)cn1 [(R) I-24] : 8.73
Cn1nccc1Nc1cc(-c2cc3n4c(ncc4c2)[C@H](Cc2ccc(Cl)cc2)CN3)ccn1 [(R) I-8] : 8.81
Cn1nccc1Nc1nccc(-c2cc3n4c(nnc4c2)[C@@H](Cc2ccccc2)CN3)n1 [(S) I-2] : 10.70

(a) CN1C(=O)C[C@@H](C2CC2)c2nnc3cc(-c4ccnc(Nc5ccnn5C)n4)cc1n23 [(S) I-65]
(b) CC(C)[C@H]1CC(=O)N(C)c2cc(-c3ccnc(Nc4ccnn4C)c3)cc3nnc1n23 [(R) I-87]
(c) COc1ccc(C[C@@H]2CN(C)c3cc(-c4ccnc(Nc5ccnn5C)c4)cc4nnc2n34)cc1 [(R) I-18]
Rank descending by pIC50. To answer, write out the labels according to the requested order.
c, b, a

(1) Cn1nccc1Nc1nccc(-c2cc3n4c(nnc4c2)[C@H](Cc2ccc(F)cc2)CO3)n1 [(S) I-44]
(2) CCC[C@H]1CCOc2cc(-c3ccnc(Nc4ccnn4C)c3)cc3nnc1n23 [(S) I-103]
(3) CCC[C@@H]1CC(=O)N(C)c2cc(-c3ccnc(Nc4ccnn4C)n3)cc3nnc1n23 [(R) I-64]
(4) Cn1nccc1Nc1nccc(-c2cc3n4c(nnc4c2)[C@@H](Cc2ccc(F)cc2)CCO3)n1 [(S) I-58]
Form: Sort by [pIC50] Order [ ascending ] Reply format: the labels, ordered as requested.
3, 1, 4, 2
(3: 6.74, 1: 8.30, 4: 9.51, 2: 10.59)
